Hi there, I'd appreciate the recorded log10 of IC50 for every entry that follows.
# Test system: HT-29
# assay.procedure: In vitro cytotoxicity against HT-29 (human colon adenocarcinoma) cell line.
# Type: functional, cell-based
Answers are given as log10 of IC50 in nM.

Sample records with log10 of IC50:
INSERT INTO measurements (compound, observed_result) VALUES
  ('O=C1c2cccc3cccc(c23)C(=O)N1CCNCCCNCCN1C(=O)c2cccc3cccc(c23)C1=O [ELINAFIDE]', 1.15),
  ('CN(C)CCN1C(=O)c2cccc3cc4ccccc4c(c23)C1=O [AZONAFIDE]', 2.15),
  ('O=C1c2cccc3cc4ccccc4c(c23)C(=O)N1CCN1CCCN(CCN2C(=O)c3cccc4cc5ccccc5c(c34)C2=O)C1', 0.30),
  ('O=C1c2cccc3cc4ccccc4c(c23)C(=O)N1CCCCNCCCN1C(=O)c2cccc3cc4ccccc4c(c23)C1=O', 1.85),
  ('O=C1c2cccc3cc4ccccc4c(c23)C(=O)N1CCNCCNCCN1C(=O)c2cccc3cc4ccccc4c(c23)C1=O', 0.95);

Quick batch: log10 of IC50 for everything below.
1. O=C1c2cccc3cc4c([N+](=O)[O-])cccc4c(c23)C(=O)N1CCNCCNCCN1C(=O)c2cccc3cc4c([N+](=O)[O-])cccc4c(c23)C1=O
2. O=C1c2cccc3cc4ccccc4c(c23)C(=O)N1CCCNCCNCCCN1C(=O)c2cccc3cc4ccccc4c(c23)C1=O
3. CN(CCN(C)CCN1C(=O)c2cccc3cc4ccccc4c(c23)C1=O)CCN1C(=O)c2cccc3cc4ccccc4c(c23)C1=O
4. O=C1c2cccc3cc4ccccc4c(c23)C(=O)N1CCNCCCCCNCCN1C(=O)c2cccc3cc4ccccc4c(c23)C1=O

1: 1.98; 2: 1.98; 3: 1.88; 4: 0.95

Quick batch: log10 of IC50 for everything below.
1. O=C1c2cccc3cc4c([N+](=O)[O-])cccc4c(c23)C(=O)N1CCNCCCNCCN1C(=O)c2cccc3cc4c([N+](=O)[O-])cccc4c(c23)C1=O
2. O=C1c2cccc3cc4ccccc4c(c23)C(=O)N1CCNCCCCNCCN1C(=O)c2cccc3cc4ccccc4c(c23)C1=O

1. 1.54
2. 1.61

* * *

# Test system: HT-29
# assay.procedure: In vitro cytotoxicity against HT-29 (human colon adenocarcinoma) cell line.
# Type: functional, cell-based
pIC50: −log10 of the molar value.
Outcome label depends on pIC50 relative to 7: at/above gives Criterion met, below gives Criterion not met.

Past entries and their recorded results:
INSERT INTO measurements (molecule, subject_of_test, answer_label) VALUES
  ('O=C1c2cccc3cc4ccccc4c(c23)C(=O)N1CCCNCCCN1C(=O)c2cccc3cc4ccccc4c(c23)C1=O', 'HT-29', 'Criterion met'),
  ('CN(C)CCN1C(=O)c2cccc3cc([N+](=O)[O-])cc(c23)C1=O [MITONAFIDE]', 'HT-29', 'Criterion not met'),
  ('O=C1c2cccc3cc4ccccc4c(c23)C(=O)N1CCCNCCCCNCCCN1C(=O)c2cccc3cc4ccccc4c(c23)C1=O', 'HT-29', 'Criterion not met');

Let us examine a further case.
Dear colleague, could you confirm whether O=C1c2cccc3cc4ccccc4c(c23)C(=O)N1CCCNCCN1C(=O)c2cccc3cc4ccccc4c(c23)C1=O has pIC50 at or above 7?
Criterion not met
